Data provenance is paper PMC11204923.

For each of the molecules below, state its pIC50.
system: HL-60 cells; assay: Cell viability assay (resazurin), HL-60; assay type: cell-based; details: Homo sapiens, HL-60, 72 h; read-out: IC50 anti-proliferative activity HL-60
Answers are plain numbers, as −log10 of the molar value.

Would you be so kind as to report pIC50 for each listed record?
1. CCCNNC(=O)C=Cc1ccc(CNCc2cccc3ccccc23)cc1 [Compound 25g]
2. Nc1ccccc1NC(=O)c1ccc(CNC(=O)OCc2cccnc2)cc1 [Entinostat, reference compound]
3. CCCNNC(=O)C=Cc1ccc(CNCc2ccccc2)cc1 [Compound 25b]
4. CCCNNC(=O)C=Cc1ccc(CNC2Cc3ccccc3C2)cc1 [Compound 25e]

## Output
6.19
5.96
6.13
6.30

## Input Given CCCNNC(=O)C=Cc1ccc(CNCCc2ccccc2)cc1 [Compound 25c] , state its recorded pIC50.
## Output 6.32

* * *

target: HDAC11 (Homo sapiens)
Sequence (Q96DB2 whole entry): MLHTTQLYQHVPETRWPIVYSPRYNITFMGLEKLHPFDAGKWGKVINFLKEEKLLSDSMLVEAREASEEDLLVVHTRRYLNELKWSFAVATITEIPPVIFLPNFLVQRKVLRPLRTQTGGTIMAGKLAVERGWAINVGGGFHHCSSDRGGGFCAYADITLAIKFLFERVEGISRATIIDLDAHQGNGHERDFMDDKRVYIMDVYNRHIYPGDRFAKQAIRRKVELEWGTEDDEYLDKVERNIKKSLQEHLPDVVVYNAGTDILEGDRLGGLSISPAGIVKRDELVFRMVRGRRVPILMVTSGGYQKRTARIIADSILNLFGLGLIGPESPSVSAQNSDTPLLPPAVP
pIC50: −log10 of the molar value.
value_type: pIC50

## Input Given CCCNNC(=O)C=Cc1ccc(CNCCc2ccccc2)cc1 [Compound 25c] , state its recorded pIC50.
## Output < 5.00

* * *

For each of the compounds below, state its inhibition at 0.1 µM.
molecular target: HDAC1 (Homo sapiens, UniProt Q13547); construct: purchased BPS Bioscience; experiment: In vitro HDAC inhibition fluorescence assay, HDAC1; type: biochemical; details: 100 nM; read-out: Inhibition Rate of HDAC1 (%)
Sequence (Q13547 whole entry): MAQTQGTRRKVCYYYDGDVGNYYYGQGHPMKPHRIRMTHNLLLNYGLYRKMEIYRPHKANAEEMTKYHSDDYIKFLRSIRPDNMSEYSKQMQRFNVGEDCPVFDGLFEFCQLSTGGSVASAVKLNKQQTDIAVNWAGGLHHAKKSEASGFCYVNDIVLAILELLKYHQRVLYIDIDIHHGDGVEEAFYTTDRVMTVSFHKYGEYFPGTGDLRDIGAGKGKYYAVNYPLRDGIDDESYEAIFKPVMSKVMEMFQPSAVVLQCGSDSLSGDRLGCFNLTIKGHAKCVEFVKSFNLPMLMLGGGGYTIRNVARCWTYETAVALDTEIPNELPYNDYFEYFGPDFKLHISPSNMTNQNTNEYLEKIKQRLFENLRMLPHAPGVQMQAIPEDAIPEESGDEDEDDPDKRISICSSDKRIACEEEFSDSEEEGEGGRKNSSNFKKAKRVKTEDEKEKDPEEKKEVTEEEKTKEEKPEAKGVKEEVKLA
Numbers only, in %.

Recorded results for 10 compounds are shown here.
| compound | experimental_target | observed_value |
| --- | --- | --- |
| CCCNNC(=O)C=Cc1ccc(CNCc2ccccc2)cc1 [Compound 25b] | HDAC1 (Homo sapiens, UniProt Q13547) | 77 |
| CCCNNC(=O)C=Cc1ccc(CNC2Cc3ccccc3C2)cc1 [Compound 25e] | HDAC1 (Homo sapiens, UniProt Q13547) | 78.7 |
| CCCNNC(=O)C=Cc1ccc(C(=O)N2CCc3cc(Br)ccc3C2)cc1 [Compound 19c] | HDAC1 (Homo sapiens, UniProt Q13547) | 27.2 |
| Nc1ccccc1NC(=O)c1ccc(CNC(=O)OCc2cccnc2)cc1 [Entinostat, reference compound] | HDAC1 (Homo sapiens, UniProt Q13547) | 37.6 |
| CCCNNC(=O)c1ccc(C=CC(=O)NCCc2ccccc2)cc1 | HDAC1 (Homo sapiens, UniProt Q13547) | 74.5 |
| CCCNNC(=O)C=Cc1ccc(C(=O)N2CCc3ccc(Br)cc3C2)cc1 [Compound 19d] | HDAC1 (Homo sapiens, UniProt Q13547) | 38.2 |
| CCCNNC(=O)CCCCCC(=O)NCCc1ccccc1 | HDAC1 (Homo sapiens, UniProt Q13547) | 52 |
| CCCNNC(=O)CCCCCCNC(=O)Cc1ccccc1 [Compound 14d] | HDAC1 (Homo sapiens, UniProt Q13547) | 43.2 |
| CCCNNC(=O)c1ccc(C(=O)NCCc2ccccc2)cc1 | HDAC1 (Homo sapiens, UniProt Q13547) | 30.1 |
| CCCNNC(=O)c1ccc(CCC(=O)NCCc2ccccc2)cc1 | HDAC1 (Homo sapiens, UniProt Q13547) | 67.3 |

Would you be so kind as to report inhibition at 0.1 µM for each listed record?
1. CCCNNC(=O)CCC(=O)NCCc1ccccc1
2. CCCNNC(=O)C=Cc1ccc(CNc2ccccc2)cc1 [Compound 25a]
3. CCCNNC(=O)CCCCC(=O)NCCc1ccccc1
4. CCCNNC(=O)C=Cc1ccc(C(=O)NCCc2ccccc2)cc1

## Output
[0.3, 60.7, 27.5, 76.7]

Would you be so kind as to report inhibition at 0.1 µM for each listed record?
1. CCCNNC(=O)c1ccc(CC(=O)NCCc2ccccc2)cc1
2. CCCNNC(=O)CCCCCCCC(=O)NCCc1ccccc1
3. CCCNNC(=O)CCCCCNC(=O)Cc1ccccc1 [Compound 14c]
4. CCCNNC(=O)CCCCCCC(=O)NCCc1ccccc1
5. CCCNNC(=O)CCCNC(=O)Cc1ccccc1 [Compound 14a]
6. CCCNNC(=O)CCc1ccc(C(=O)NCCc2ccccc2)cc1

## Output
[10.1, 57.1, 14.4, 65.6, 2.3, 67.9]
